target: rabbit skeletal muscle ryanodine receptor Ca^2+ release channel (RyR1) (Oryctolagus cuniculus); experiment: [^3H]ryanodine binding/displacement assay with SR membrane vesicles
Sequence (P11716 whole entry): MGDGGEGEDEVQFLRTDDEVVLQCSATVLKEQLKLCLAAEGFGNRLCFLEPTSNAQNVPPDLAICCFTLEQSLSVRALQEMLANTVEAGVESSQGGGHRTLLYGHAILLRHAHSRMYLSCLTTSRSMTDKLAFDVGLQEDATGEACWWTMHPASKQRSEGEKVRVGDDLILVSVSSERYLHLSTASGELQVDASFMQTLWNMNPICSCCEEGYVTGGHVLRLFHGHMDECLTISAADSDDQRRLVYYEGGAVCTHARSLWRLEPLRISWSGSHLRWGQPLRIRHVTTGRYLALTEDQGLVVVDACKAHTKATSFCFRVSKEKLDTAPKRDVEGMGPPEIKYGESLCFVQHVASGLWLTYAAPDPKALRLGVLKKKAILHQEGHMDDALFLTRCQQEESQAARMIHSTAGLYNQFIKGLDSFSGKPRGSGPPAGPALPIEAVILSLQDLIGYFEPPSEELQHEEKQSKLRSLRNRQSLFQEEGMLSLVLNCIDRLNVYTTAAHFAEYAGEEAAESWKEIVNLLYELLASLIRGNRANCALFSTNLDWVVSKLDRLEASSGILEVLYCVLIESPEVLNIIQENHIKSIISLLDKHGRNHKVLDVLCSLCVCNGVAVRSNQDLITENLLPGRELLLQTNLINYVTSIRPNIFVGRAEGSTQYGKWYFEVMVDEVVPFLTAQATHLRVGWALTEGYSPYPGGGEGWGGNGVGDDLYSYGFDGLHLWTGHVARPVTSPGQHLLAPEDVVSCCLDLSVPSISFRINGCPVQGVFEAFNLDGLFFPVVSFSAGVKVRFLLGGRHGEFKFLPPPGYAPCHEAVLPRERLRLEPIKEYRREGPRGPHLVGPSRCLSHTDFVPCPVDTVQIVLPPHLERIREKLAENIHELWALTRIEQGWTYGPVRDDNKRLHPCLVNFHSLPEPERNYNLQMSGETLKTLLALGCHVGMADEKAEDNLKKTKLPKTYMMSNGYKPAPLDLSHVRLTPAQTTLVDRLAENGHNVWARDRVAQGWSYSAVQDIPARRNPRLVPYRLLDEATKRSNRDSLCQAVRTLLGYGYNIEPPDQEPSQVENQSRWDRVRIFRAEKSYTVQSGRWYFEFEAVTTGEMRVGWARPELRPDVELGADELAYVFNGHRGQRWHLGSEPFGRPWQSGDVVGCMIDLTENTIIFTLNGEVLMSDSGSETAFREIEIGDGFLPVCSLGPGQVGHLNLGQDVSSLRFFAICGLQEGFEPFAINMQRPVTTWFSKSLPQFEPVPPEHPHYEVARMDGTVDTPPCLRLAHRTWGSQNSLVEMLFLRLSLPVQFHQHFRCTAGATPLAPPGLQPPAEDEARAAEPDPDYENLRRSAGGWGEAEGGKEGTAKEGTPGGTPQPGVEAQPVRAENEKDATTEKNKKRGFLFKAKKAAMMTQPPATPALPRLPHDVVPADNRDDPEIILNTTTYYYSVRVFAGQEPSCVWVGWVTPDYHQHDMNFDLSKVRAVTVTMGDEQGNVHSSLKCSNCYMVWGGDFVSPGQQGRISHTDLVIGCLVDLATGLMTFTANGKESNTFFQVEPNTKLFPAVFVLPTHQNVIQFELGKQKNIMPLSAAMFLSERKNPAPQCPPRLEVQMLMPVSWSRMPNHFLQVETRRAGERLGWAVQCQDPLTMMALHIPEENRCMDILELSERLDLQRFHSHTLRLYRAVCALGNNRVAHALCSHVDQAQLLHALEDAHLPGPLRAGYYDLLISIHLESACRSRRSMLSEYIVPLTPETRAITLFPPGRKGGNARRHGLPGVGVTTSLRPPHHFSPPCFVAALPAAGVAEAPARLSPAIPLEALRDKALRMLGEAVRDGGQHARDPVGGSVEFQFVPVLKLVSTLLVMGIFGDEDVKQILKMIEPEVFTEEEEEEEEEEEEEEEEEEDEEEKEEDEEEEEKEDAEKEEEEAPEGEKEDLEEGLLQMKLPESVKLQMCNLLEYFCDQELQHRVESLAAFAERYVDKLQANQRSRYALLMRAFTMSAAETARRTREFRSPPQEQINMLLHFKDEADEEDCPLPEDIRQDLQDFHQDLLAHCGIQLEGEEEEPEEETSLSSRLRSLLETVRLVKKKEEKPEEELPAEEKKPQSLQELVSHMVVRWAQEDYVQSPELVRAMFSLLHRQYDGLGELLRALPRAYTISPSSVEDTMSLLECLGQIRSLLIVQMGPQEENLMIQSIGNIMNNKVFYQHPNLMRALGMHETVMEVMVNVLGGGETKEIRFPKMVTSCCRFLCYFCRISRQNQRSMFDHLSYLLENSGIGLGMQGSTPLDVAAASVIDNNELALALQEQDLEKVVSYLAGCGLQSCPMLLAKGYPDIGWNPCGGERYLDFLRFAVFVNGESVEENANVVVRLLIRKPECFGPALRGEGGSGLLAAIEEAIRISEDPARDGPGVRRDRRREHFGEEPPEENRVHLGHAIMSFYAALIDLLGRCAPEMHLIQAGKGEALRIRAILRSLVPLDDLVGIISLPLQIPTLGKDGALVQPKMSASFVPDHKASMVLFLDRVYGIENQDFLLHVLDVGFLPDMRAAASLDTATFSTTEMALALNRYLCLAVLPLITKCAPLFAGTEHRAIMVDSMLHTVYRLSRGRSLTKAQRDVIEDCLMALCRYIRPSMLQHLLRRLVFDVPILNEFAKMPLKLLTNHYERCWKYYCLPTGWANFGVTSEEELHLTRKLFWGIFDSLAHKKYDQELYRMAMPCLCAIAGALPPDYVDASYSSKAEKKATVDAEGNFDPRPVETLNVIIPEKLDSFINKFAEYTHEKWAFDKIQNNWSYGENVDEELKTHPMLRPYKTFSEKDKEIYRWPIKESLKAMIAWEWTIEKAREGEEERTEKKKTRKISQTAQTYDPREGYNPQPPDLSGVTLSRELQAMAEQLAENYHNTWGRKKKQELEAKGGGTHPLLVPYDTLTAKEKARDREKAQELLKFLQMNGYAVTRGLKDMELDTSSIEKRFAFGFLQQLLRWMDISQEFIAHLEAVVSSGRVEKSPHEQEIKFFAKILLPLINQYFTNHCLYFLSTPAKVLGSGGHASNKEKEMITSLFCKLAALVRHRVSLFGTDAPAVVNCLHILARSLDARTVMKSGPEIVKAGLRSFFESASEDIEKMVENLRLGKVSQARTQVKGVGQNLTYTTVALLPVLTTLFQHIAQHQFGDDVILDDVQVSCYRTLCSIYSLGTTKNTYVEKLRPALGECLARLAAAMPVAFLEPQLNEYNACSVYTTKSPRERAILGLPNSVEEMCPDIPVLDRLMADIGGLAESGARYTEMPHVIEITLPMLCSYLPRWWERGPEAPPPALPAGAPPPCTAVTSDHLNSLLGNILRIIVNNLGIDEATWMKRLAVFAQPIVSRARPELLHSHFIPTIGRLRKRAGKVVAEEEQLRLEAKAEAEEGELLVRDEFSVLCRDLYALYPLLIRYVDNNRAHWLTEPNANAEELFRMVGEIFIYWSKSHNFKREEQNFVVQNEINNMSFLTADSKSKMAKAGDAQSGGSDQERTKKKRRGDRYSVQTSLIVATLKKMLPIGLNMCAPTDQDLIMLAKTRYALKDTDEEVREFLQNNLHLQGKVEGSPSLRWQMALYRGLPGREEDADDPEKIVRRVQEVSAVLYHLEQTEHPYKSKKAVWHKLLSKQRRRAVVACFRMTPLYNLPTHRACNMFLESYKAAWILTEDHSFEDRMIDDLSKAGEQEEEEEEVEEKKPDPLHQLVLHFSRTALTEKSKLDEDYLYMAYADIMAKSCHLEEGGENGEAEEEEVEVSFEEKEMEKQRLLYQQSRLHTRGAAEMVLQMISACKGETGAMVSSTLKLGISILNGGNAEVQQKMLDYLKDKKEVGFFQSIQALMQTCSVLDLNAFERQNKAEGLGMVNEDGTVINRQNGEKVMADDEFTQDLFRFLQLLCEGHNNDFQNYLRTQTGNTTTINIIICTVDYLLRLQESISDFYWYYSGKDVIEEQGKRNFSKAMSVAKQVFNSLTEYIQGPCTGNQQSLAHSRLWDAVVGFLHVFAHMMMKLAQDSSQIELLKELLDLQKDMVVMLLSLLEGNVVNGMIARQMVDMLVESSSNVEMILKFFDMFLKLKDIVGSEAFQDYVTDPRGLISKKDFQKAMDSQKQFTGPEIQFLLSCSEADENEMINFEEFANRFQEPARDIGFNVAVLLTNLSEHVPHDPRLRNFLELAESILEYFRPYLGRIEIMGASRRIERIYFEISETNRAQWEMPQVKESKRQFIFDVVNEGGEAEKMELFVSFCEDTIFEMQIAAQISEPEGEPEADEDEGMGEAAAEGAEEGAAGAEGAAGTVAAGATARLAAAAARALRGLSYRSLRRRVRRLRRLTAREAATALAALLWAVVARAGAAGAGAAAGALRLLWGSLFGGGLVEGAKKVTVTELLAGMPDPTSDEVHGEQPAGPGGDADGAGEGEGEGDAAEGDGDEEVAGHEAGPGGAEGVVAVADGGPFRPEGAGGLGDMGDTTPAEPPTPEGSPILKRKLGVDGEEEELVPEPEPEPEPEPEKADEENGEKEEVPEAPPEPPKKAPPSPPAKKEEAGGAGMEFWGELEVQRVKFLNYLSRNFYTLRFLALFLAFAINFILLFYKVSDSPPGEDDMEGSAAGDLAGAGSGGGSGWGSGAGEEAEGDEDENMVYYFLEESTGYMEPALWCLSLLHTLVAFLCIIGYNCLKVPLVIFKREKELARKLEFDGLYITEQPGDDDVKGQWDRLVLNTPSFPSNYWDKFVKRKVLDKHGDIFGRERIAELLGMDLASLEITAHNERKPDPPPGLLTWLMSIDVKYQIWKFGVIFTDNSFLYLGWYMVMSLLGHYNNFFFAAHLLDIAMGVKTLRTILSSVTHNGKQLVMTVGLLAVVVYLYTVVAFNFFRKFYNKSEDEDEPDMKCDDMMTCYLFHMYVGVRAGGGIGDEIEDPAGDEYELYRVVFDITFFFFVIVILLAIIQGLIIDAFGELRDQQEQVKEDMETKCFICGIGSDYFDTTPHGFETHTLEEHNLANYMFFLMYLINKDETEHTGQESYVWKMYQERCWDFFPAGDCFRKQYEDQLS
Measurement Label: Ki
Units required after the number.

**Q:** Look up Ki: COC(=O)N[C@H](C(=O)N[C@@H](Cc1ccccc1)[C@@H](O)CN(Cc1ccc(-c2ccccn2)cc1)NC(=O)[C@@H](NC(=O)OC)C(C)(C)C)C(C)(C)C [ATV, atazanavir]
**A:** 1.6 µM
